Taken from PubChem BioAssay AID1919009.

Consider the following molecules; for each one, report its viability, T/C.
Test system: K24384-001-R-PDC complex spheroid growth;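 note: percent of DMSO vehicle-treated spheroid viability set as 100%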
Assay: Anticancer human tumor K24384-001-R-PDC patient-derived pancreatic adenocarcinoma cell line growth inhibition [AhR]
Conditions: second compound 10 µM; first compound 0.003 µM; stronger effect = lower value

Worked examples follow.
>  <MOLECULE>
CCc1c2c(nc3ccc(O)cc13)-c1cc3c(c(=O)n1C2)COC(=O)[C@]3(O)CC + CC(CO)NC(=O)c1cc(-c2ccc(Cl)cc2)nn(-c2cnn(C)c2)c1=O

>  <viability, T/C>
54.4%

$$$$
>  <MOLECULE>
Nc1ncn(C2CC(O)C(CO)S2)c(=O)n1 (centres undefined) + CC(CO)NC(=O)c1cc(-c2ccc(Cl)cc2)nn(-c2cnn(C)c2)c1=O

>  <viability, T/C>
106%

$$$$
>  <MOLECULE>
CC(C)CC(NC(=O)C(Cc1ccccc1)NC(=O)c1cnccn1)B(O)O (centres undefined) + Cc1ccccc1N=Nc1ccc(NC(=O)c2ccnn2C)c(C)c1

>  <viability, T/C>
115%

$$$$
>  <MOLECULE>
CC(C)CC(NC(=O)C(Cc1ccccc1)NC(=O)c1cnccn1)B(O)O (centres undefined) + Cc1cncc(-c2nc(NCCc3c[nH]c4ccccc34)c3ncn(C(C)C)c3n2)c1

>  <viability, T/C>
24.2%

$$$$
>  <MOLECULE>
CCc1c2c(nc3ccc(O)cc13)-c1cc3c(c(=O)n1C2)COC(=O)[C@]3(O)CC + Cc1ccccc1N=Nc1ccc(NC(=O)c2ccnn2C)c(C)c1

>  <viability, T/C>
82%

$$$$
>  <MOLECULE>
Nc1ncn(C2CC(O)C(CO)S2)c(=O)n1 (centres undefined) + Cc1cncc(-c2nc(NCCc3c[nH]c4ccccc34)c3ncn(C(C)C)c3n2)c1

>  <viability, T/C>
28.5%

$$$$
>  <MOLECULE>
Nc1ncn(C2CC(O)C(CO)S2)c(=O)n1 (centres undefined) + Cc1ccccc1N=Nc1ccc(NC(=O)c2ccnn2C)c(C)c1

>  <viability, T/C>
103%

$$$$
>  <MOLECULE>
CCc1c2c(nc3ccc(O)cc13)-c1cc3c(c(=O)n1C2)COC(=O)[C@]3(O)CC + Cc1cncc(-c2nc(NCCc3c[nH]c4ccccc34)c3ncn(C(C)C)c3n2)c1

>  <viability, T/C>
5.63%

$$$$

## Input Entry under review: CC(C)CC(NC(=O)C(Cc1ccccc1)NC(=O)c1cnccn1)B(O)O (centres undefined) + CC(CO)NC(=O)c1cc(-c2ccc(Cl)cc2)nn(-c2cnn(C)c2)c1=O . Reported viability, T/C?
## Output 110%
